Property: pKd; scope: individual binders
assayed_target: Aβ1-42 fibers (human)
assay_comment: SPR
Note: pKd values are expressed as the negative base-10 logarithm of concentration in M.

Here is how some binders turned out for pKd.
MS-R 7.11.H1 x 7.11.L1 IgG1 (antibody, V domains shown) VH: QLVESGGGLVQPGGSLRLSCAASGFTFSSYAMSWVRQAPGKGLEWVSGINAAGFRTYYADSVKGRFTISRDNSKNTLYLQMNSLRAEDTAVYYCARGKGNTHKPYGYVRYFDVWGQGTLVTVSS VL: DIVLTQSPATLSLSPGERATLSCRASQRILRIYLAWYQQKPGQAPRLLIYGASSRATGVPARFSGSGSGTDFTLTISSLEPEDFATYYCQQVYSPPHTFGQGTKVEIKR    9.15
MS-R 3.6.H5 x 3.6.L2 IgG1 (antibody, V domains shown) VH: QLVESGGGLVQPGGSLRLSCAASGFTFSSYAMSWVRQAPGKGLEWVSAISESGKTKYYADSVKGRFTISRDNSKNTLYLQMNSLRAEDTAVYYCARLTHYARYYRYFDVWGQGTLVTVSS VL: DIVLTQSPATLSLSPGERATLSCRASQFLSRYYLAWYQQKPGQAPRLLIYGASSRATGVPARFSGSGSGTDFTLTISSLEPEDFAVYYCQQTYNYPPTFGQGTKVEIKR    9.02

Fill in the blank: the reported pKd of MS-R 7.4.H2 x 7.2.L1 IgG1 (antibody, V domains shown) VH: QLVESGGGLVQPGGSLRLSCAASGFTFSSYAMSWVRQAPGKGLEWVSAINYNGARIYYADSVKGRFTISRDNSKNTLYLQMNSLRAEDTAVYYCARGKGNTHKPYGYVRYFDVWGQGTLVTVSS VL: DIVLTQSPATLSLSPGERATLSCRASQYVDRTYLAWYQQKPGQAPRLLIYGASSRATGVPARFSGSGSGTDFTLTISSLEPEDFATYYCQQIYSFPHTFGQGTKVEIKR is ____.
9.25
